testSystem: PRMT5-MEP50 enzyme complex (Homo sapiens)
Sequence (O14744 2-637 limits assumed): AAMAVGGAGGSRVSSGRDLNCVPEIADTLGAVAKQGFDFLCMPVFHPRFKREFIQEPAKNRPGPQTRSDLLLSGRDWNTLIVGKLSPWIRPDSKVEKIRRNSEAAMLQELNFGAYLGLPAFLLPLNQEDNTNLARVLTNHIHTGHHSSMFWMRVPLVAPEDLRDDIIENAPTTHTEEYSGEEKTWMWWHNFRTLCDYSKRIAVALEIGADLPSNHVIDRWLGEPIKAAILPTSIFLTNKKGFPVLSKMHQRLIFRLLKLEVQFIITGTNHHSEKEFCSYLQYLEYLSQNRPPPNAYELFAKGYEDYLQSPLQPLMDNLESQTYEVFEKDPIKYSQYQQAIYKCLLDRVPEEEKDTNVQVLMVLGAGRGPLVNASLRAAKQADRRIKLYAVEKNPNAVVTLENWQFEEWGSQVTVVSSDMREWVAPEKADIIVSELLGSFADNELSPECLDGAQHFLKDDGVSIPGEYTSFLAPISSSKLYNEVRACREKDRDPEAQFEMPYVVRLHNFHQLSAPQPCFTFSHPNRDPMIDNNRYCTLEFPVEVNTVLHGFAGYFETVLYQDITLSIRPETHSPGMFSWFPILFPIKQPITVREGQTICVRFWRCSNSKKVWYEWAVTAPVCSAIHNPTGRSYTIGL
Sequence (Q9BQA1 2-342 partner limits assumed): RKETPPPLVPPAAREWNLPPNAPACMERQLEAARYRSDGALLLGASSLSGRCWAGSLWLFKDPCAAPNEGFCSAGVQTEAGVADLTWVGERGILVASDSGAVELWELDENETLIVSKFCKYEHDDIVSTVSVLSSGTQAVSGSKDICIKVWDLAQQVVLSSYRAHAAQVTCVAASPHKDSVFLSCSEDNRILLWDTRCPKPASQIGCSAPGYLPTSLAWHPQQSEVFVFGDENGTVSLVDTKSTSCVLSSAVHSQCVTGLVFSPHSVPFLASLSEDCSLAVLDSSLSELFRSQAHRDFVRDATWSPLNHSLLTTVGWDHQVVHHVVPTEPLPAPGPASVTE
measurementProtocol: In vitro PRMT5 enzyme activity assay (methylation of histone H4 arginine H4R3, ELISA absorbance at 450 nm)
conditionLabel: S-adenosylmethionine, histone H4 peptide, 2 hours at room temperature, 8 points 10 μM to 0.128 nM
metricName: IC50

Req: Recall and state the measured IC50 for `O=C1c2ccc(N3CCNCC3)cc2CCN1C[C@H](O)CN1CCc2ccccc2C1` .
Resp: 1 to 100 nM

Req: Let me know recorded IC50 for `CC(C)(O)CNc1ccc2c(c1)CCN(C[C@H](O)CN1CCc3ccccc3C1)C2=O` , thanks.
Resp: 1 to 100 nM

Req: Supply measured IC50 of `O=C1c2ccc(N3CCCCC3=O)cc2CCN1C[C@H](O)CN1CCc2ccccc2C1` in your reply.
Resp: 100 to 1000 nM

Req: Hello, please tell me recorded IC50 for this one: `O=C1c2ccc(NCC3CCCCC3)cc2CCN1C[C@H](O)CN1CCc2ccccc2C1`
Resp: 1 to 100 nM

Req: Determine from records and report IC50 for `O=C1c2ccc(-c3ccnc(F)c3)cc2CCN1C[C@H](O)CN1CCc2ccccc2C1`
Resp: 1 to 100 nM

Req: Supply IC50 value. Item: `O=C1c2ccc(OC3CCOCC3)cc2CCN1C[C@H](O)CN1CCc2ccccc2C1`
Resp: 1 to 100 nM

Req: Please report IC50 for the following compound: `CC(=O)N1CC=C(c2ccc3c(c2)CCN(C[C@H](O)CN2CCc4ccccc4C2)C3=O)CC1`
Resp: 1 to 100 nM

Req: For the compound `CN1CCN(c2ccc3c(c2)CCN(C[C@H](O)CN2CCc4ccccc4C2)C3=O)CC1` , give its reported IC50.
Resp: 1 to 100 nM

Req: Entry `CC(=O)N1CCC(Oc2ccc3c(c2)CCN(C[C@H](O)CN2CCc4ccccc4C2)C3=O)CC1` needs its IC50 filled in; supply it.
Resp: 100 to 1000 nM

Req: Report measured IC50; entry is `CC(=O)NC1CCN(c2ccc3c(c2)CCN(C[C@H](O)CN2CCc4ccccc4C2)C3=O)CC1`
Resp: 100 to 1000 nM

Req: Give IC50 for O=C1c2ccc(N3CC4CC3CO4)cc2CCN1C[C@H](O)CN1CCc2ccccc2C1 (stereo partly shown)
Resp: 100 to 1000 nM

Req: Tell me IC50 reported for `CCN1CCC(COc2ccc3c(c2)CCN(C[C@H](O)CN2CCc4ccccc4C2)C3=O)CC1`
Resp: 100 to 1000 nM

Req: Name the recorded IC50 of the compound listed here: `CCN1CCC(Oc2ccc3c(c2)C(C)(C)CN(C[C@H](O)CN2CCc4ccccc4C2)C3=O)CC1`
Resp: 1 to 100 nM

Req: Please report IC50 for the following compound: `CC(=O)Nc1ccc2c(c1)CCN(C[C@H](O)CN1CCc3ccccc3C1)C2=O`
Resp: 100 to 1000 nM

Req: Report IC50 for CC1COCCN1c1ccc2c(c1)CCN(C[C@H](O)CN1CCc3ccccc3C1)C2=O (stereo partly shown)
Resp: 1000 to 10000 nM

Req: Given `COCCN(C)C1CCN(c2ccc3c(c2)CCN(C[C@H](O)CN2CCc4ccccc4C2)C3=O)CC1` , respond with its IC50.
Resp: 1 to 100 nM

Req: Provide IC50 value for the following compound: `CCN1CCC(Oc2ccc3c(c2)CCN(C[C@H](O)CN2CCc4ccccc4C2)C3=O)CC1`
Resp: 100 to 1000 nM

Req: Give the value of IC50 reported for the following: `O=C1c2ccc(N3CCOCC3)nc2CCN1C[C@H](O)CN1CCc2ccccc2C1`
Resp: 1 to 100 nM

Req: Entry CC1CN(c2ccc3c(c2)CCN(C[C@H](O)CN2CCc4ccccc4C2)C3=O)CC(C)N1 (stereo partly shown) needs its IC50 filled in; supply it.
Resp: 1 to 100 nM
